The origin of these recorded values is patent US9150568B2.

TEST_SYSTEM: human Farnesoid X Receptor (FXR) ligand binding domain (GST-FXR LBD) (Homo sapiens, UniProt Q96RI1)
Construct: purchased Invitrogen
Sequence (Q96RI1 193-472 isoform Q96RI1-2): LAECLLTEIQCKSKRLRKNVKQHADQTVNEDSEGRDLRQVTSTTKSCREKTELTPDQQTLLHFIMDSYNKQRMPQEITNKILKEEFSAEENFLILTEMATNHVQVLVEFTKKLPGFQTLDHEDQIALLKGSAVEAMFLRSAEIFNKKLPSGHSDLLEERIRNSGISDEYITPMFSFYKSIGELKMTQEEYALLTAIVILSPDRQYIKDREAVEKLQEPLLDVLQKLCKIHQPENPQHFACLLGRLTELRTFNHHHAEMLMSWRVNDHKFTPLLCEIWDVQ
ASSAY_REMARKS: Human GST-FXR LBD co-activator interaction assay (HTRF)
Assay type: biochemical
CONDITION_NOTES: GST-FXR LBD / biotin-SRC-1 peptide FRET; response relative to GW4064; read-out: FXR Co-activator interaction assay (EC50)
pEC50: −log10 of the molar value.
PROPERTY: pEC50

{"COMPOUND": "O=C(O)c1ccc2nc(N3C4CC[C@H]3C[C@H](OCc3c(-c5ccccc5C(F)(F)F)noc3C3CC3)C4)sc2c1", "OBSERVED": 9.17}
{"COMPOUND": "O=C(O)c1ccc(N2[C@@H]3CC[C@H]2C[C@@H](OCc2c(-c4cccc(F)c4F)noc2C2CC2)C3)nc1", "OBSERVED": 7.07}
{"COMPOUND": "COc1cc(C(=O)O)cc2sc(N3[C@@H]4CC[C@H]3C[C@@H](OCc3c(-c5c(Cl)cccc5Cl)noc3C3CC3)C4)nc12", "OBSERVED": 9.52}
{"COMPOUND": "COC(=O)c1cnc(N2[C@@H]3CC[C@H]2C[C@@H](OCc2c(-c4c(F)cccc4F)noc2C2CC2)C3)cc1C(F)(F)F [Example 22-16A]", "OBSERVED": 6.80}
{"COMPOUND": "COC(=O)c1ccc(N2C3CC[C@H]2CC(OCc2c(-c4c(F)cccc4F)noc2C2CC2)C3)c(F)c1 (some centres unmarked)", "OBSERVED": 7.10}
{"COMPOUND": "COc1cc(C(=O)O)cc2sc(N3[C@@H]4CC[C@H]3C[C@@H](OCc3c(-c5ccccc5Cl)noc3C3CC3)C4)nc12", "OBSERVED": 9.13}
{"COMPOUND": "COc1cc(C(=O)O)cc2sc(N3C4CC[C@H]3C[C@H](OCc3c(C5CC5)noc3C3CC3)C4)nc12", "OBSERVED": 7.40}
{"COMPOUND": "COC(=O)c1cnc(N2C3CC[C@H]2CC(OCc2c(-c4ccccc4C(F)(F)F)noc2C2CC2)C3)nc1 (some centres unmarked)", "OBSERVED": 6.92}
{"COMPOUND": "O=C(O)c1cc2cc(N3C4CC[C@H]3CC(OCc3c(-c5ccccc5OC(F)(F)F)noc3C3CC3)C4)ccc2s1 (some centres unmarked)", "OBSERVED": 8.13}
{"COMPOUND": "Cc1cc(C(=O)O)cc2sc(N3C4CC[C@H]3CC(OCc3c(-c5ccc(F)cc5)noc3C3CC3)C4)nc12 (some centres unmarked)", "OBSERVED": 7.34}
{"COMPOUND": "O=C(O)c1cnc(N2[C@@H]3CC[C@H]2C[C@@H](OCc2c(-c4c(F)cccc4F)noc2C2CC2)C3)c(C2CC2)c1 [Example 22-17B]", "OBSERVED": 8.52}
{"COMPOUND": "O=C(O)c1cc2cc(N3C4CC[C@H]3CC(OCc3c(-c5ccccc5OC(F)(F)F)noc3C3CC3)C4)ccc2o1 (some centres unmarked)", "OBSERVED": 8.34}
{"COMPOUND": "COC(=O)c1cnc(N2C3CC[C@H]2C[C@H](OCc2c(-c4ccccc4OC(F)(F)F)noc2C2CC2)C3)cc1C(F)(F)F", "OBSERVED": 7.05}
{"COMPOUND": "O=C(O)c1ccc2nc(N3C4CC[C@H]3CC(OCc3c(-c5c(Cl)cccc5Cl)noc3C3CC3)C4)sc2c1 (some centres unmarked)", "OBSERVED": 9.70}
